Provide the recorded T/C for the entries that follow.
System: CD2F1 mice, L1210 leukemia ip, survival T/C
Test: NCI In Vivo Anticancer Drug Screen. Data for tumor model L1210 Leukemia (intraperitoneal) in CD2F1 (CDF1) mice
Conditions: endpoint: mean survival time; dose: 50.0 mg/kg/injection; schedule: Q04DX003 (ip); vehicle: Klucel (hydroxypropylcellulose) (HPC); higher = longer survival
Toxic doses and inconclusive results are not listed.

Task: Look up and report T/C, with CD2F1 mice, L1210 leukemia ip, survival T/C as system, for Cn1c(Cl)nc2c(Cl)nc(Cl)nc21
Result: 100 % of control

Task: Look up and report T/C, with CD2F1 mice, L1210 leukemia ip, survival T/C as system, for N#CC(C#N)=Cc1cccc2ccccc12
Result: 98 % of control

Task: Look up and report T/C, with CD2F1 mice, L1210 leukemia ip, survival T/C as system, for CC(C)(C)Nc1ccc([N+](=O)[O-])cc1Cl
Result: 94 % of control

Task: Look up and report T/C, with CD2F1 mice, L1210 leukemia ip, survival T/C as system, for C=C(Br)CNCCCCCC
Result: 94 % of control

* * *

Provide the recorded T/C for the entries that follow.
System: CD2F1 mice, L1210 leukemia ip, survival T/C
Experiment: NCI In Vivo Anticancer Drug Screen. Data for tumor model L1210 Leukemia (intraperitoneal) in CD2F1 (CDF1) mice
Conditions: endpoint: mean survival time; dose: 50.0 mg/kg/injection; schedule: Q01DX009 (ip); vehicle: other; higher = longer survival
Inconclusive results and toxic doses are left out.

Task: Quickly give me recorded T/C for Cc1ccc(S(=O)(=O)NCCN(CCNS(=O)(=O)c2ccc(C)cc2)S(=O)(=O)c2ccc(C)cc2)cc1
Result: 86 % of control

Task: Quickly give me recorded T/C for COc1ccc2c(c1[N+](=O)[O-])CCCCC2=O
Result: 100 % of control

Task: Quickly give me recorded T/C for COc1cc2c(cc1O)CCCCC2O (stereo unspecified)
Result: 107 % of control

Task: Quickly give me recorded T/C for COc1ccc(C(=O)NNC(=O)c2ccc(OC)c(OC)c2)cc1OC
Result: 92 % of control

Task: Quickly give me recorded T/C for COc1ccc(/C=N/NC(=O)c2ccccc2)cc1OC
Result: 105 % of control

Task: Quickly give me recorded T/C for COC(=O)NC(=O)c1cn[nH]n1
Result: 97 % of control

* * *

Provide the recorded T/C for the entries that follow.
Tested on: CD2F1 mice, L1210 leukemia ip, survival T/C
Test: NCI In Vivo Anticancer Drug Screen. Data for tumor model L1210 Leukemia (intraperitoneal) in CD2F1 (CDF1) mice
Details: endpoint: mean survival time; dose: 100.0 mg/kg/injection; schedule: Q01DX005 (ip); vehicle: water; higher = longer survival
Inconclusive results and toxic doses are left out. Residues, ends and D or L forms follow the SMILES beside them. *: point of attachment. Cbz = O=C(OCc1ccccc1)*; Bn = c1ccc(C*)cc1; βAla = NCCC(=O)O

Task: Look up and report T/C, with CD2F1 mice, L1210 leukemia ip, survival T/C as system, for Cc1cn(C2CC3OP(N(C)C)OCC3O2)c(=O)[nH]c1=O (stereo not given)
Result: 105 % of control

Task: Look up and report T/C, with CD2F1 mice, L1210 leukemia ip, survival T/C as system, for Nc1ncnc2cc3c(cc12)ncn3C1OC(CO)C(O)C1O (stereo not given)
Result: 112 % of control

Task: Look up and report T/C, with CD2F1 mice, L1210 leukemia ip, survival T/C as system, for CC1OC(n2cc(Br)c(=O)[nH]c2=O)C(O)C(O)C1O (stereo not given)
Result: 100 % of control

Task: Look up and report T/C, with CD2F1 mice, L1210 leukemia ip, survival T/C as system, for COC(=O)C(CSCc1ccccc1)NC(=O)C(CSCc1ccccc1)NC(=O)CCNC(=O)OCc1ccccc1 (stereo not given) ({Cbz-βAla}-Cys(Bn)-Cys(Bn)-OMe; configuration not given here)
Result: 106 % of control

Task: Look up and report T/C, with CD2F1 mice, L1210 leukemia ip, survival T/C as system, for Nc1nc(N2CCCCC2)c2ncn(C3OC(CO)C(O)C3O)c2n1 (stereo not given)
Result: 96 % of control

* * *

Test system: CD2F1 mice, L1210 leukemia ip, survival T/C
Assay: NCI In Vivo Anticancer Drug Screen. Data for tumor model L1210 Leukemia (intraperitoneal) in CD2F1 (CDF1) mice
Settings: endpoint: mean survival time; dose: 50.0 mg/kg/injection; schedule: Q04DX003 (ip); vehicle: saline; higher = longer survival
Experimental: The antitumor activity of compounds was measured in mice bearing transplantable tumors. Survival or tumor size were measured and the results are expressed as the measurement made in the treated group (T) divided by the measurement made in the vehicle treated control group (C). The tumor model used in this assay is L1210 Leukemia (intraperitoneal) in CD2F1 (CDF1) mice
Inconclusive results and toxic doses are left out.
Parameter: T/C

Task: Quickly give me recorded T/C for Oc1c(Cl)c(Cl)c(Cl)c(Cl)c1Cl (tested in a mixture with another compound)
Result: 103 % of control

Task: Quickly give me recorded T/C for C[n+]1ccccc1/C=N/O
Result: 94 % of control

Task: Quickly give me recorded T/C for C=CCOCC(O)CN(CCC)CCC (stereo not drawn)
Result: 89 % of control

* * *

Test system: CD2F1 mice, L1210 leukemia ip, survival T/C
Assay: NCI In Vivo Anticancer Drug Screen. Data for tumor model L1210 Leukemia (intraperitoneal) in CD2F1 (CDF1) mice
Details: endpoint: mean survival time; dose: 150.0 mg/kg/injection; schedule: Q01DX001 (ip); vehicle: saline with Tween-80; higher = longer survival
Inconclusive results and toxic doses are left out.
Provide the recorded T/C for the entries that follow.

Task: Look up and report T/C, with CD2F1 mice, L1210 leukemia ip, survival T/C as system, for c1nc(SSc2ncnc3nc[nH]c23)c2[nH]cnc2n1
Result: 162 % of control

Task: Look up and report T/C, with CD2F1 mice, L1210 leukemia ip, survival T/C as system, for CCCCCCCCCCCCCCCC(=O)OCC1OC(n2ccc(N)nc2=O)C(O)C1O (centres undefined)
Result: 608 % of control

Task: Look up and report T/C, with CD2F1 mice, L1210 leukemia ip, survival T/C as system, for CC(=O)Nc1nc(CCCCc2ccccc2)cc(=O)[nH]1
Result: 94 % of control

Task: Look up and report T/C, with CD2F1 mice, L1210 leukemia ip, survival T/C as system, for Cc1ccc(-c2nc3ncnc(N)c3[nH]2)cc1[N+](=O)[O-]
Result: 88 % of control

* * *

Provide the recorded T/C for the entries that follow.
Test system: CD2F1 mice, L1210 leukemia ip, survival T/C
Experiment: NCI In Vivo Anticancer Drug Screen. Data for tumor model L1210 Leukemia (intraperitoneal) in CD2F1 (CDF1) mice
Conditions: endpoint: mean survival time; dose: 200.0 mg/kg/injection; schedule: Q01DX009 (ip); vehicle: saline sonified; higher = longer survival
Toxic doses and inconclusive results are not listed.

Task: Look up and report T/C, with CD2F1 mice, L1210 leukemia ip, survival T/C as system, for O=C1c2ccccc2C2c3[nH]c4ccccc4c3CCN12 (stereo unspecified)
Result: 96 % of control

Task: Look up and report T/C, with CD2F1 mice, L1210 leukemia ip, survival T/C as system, for CCOC(=O)C1CC(O)CN1 (stereo unspecified)
Result: 95 % of control

Task: Look up and report T/C, with CD2F1 mice, L1210 leukemia ip, survival T/C as system, for O=C1c2ccccc2C(=O)c2c(O)c(Cc3ccccn3)cc(O)c21
Result: 94 % of control

Task: Look up and report T/C, with CD2F1 mice, L1210 leukemia ip, survival T/C as system, for C/C(C#N)=C/c1ccccc1
Result: 105 % of control

Task: Look up and report T/C, with CD2F1 mice, L1210 leukemia ip, survival T/C as system, for NC(=O)C[n+]1cccc(C(=O)Nc2ccccc2)c1
Result: 89 % of control

Task: Look up and report T/C, with CD2F1 mice, L1210 leukemia ip, survival T/C as system, for CN(C)C(=O)c1cccc(COc2ccc([N+](=O)[O-])cc2Cl)c1
Result: 98 % of control

* * *

System: CD2F1 mice, L1210 leukemia ip, survival T/C
Assay: NCI In Vivo Anticancer Drug Screen. Data for tumor model L1210 Leukemia (intraperitoneal) in CD2F1 (CDF1) mice
Details: endpoint: mean survival time; dose: 100.0 mg/kg/injection; schedule: Q04DX003 (ip); vehicle: saline with Tween-80; higher = longer survival
Toxic doses and inconclusive results are not listed.
Provide the recorded T/C for the entries that follow.

Task: Quickly give me recorded T/C for Oc1ccc(C(O)(c2ccccc2)c2ccc(O)c3ccccc23)c2ccccc12
Result: 102 % of control

Task: Quickly give me recorded T/C for Nc1ncc(C(=O)c2ccccc2)cc1[N+](=O)[O-]
Result: 96 % of control

Task: Quickly give me recorded T/C for CCOS(=O)(=O)c1ccc(Cl)c([N+](=O)[O-])c1
Result: 103 % of control

Task: Quickly give me recorded T/C for O=c1[nH]c2ccccc2c(=O)c2ccccc12
Result: 101 % of control

Task: Quickly give me recorded T/C for Cc1cccc(C)c1NC(=S)N1CCC(CCCC2CCN(C(=S)Nc3c(C)cccc3C)CC2)CC1
Result: 105 % of control

Task: Quickly give me recorded T/C for CCc1cc(O)cc(C)c1Cl
Result: 92 % of control
